Entry source: patent US20250250357A1

- TARGET: T1, human MSLN-R2-his protein (human, UniProt Q13421 391-486)
- T1 construct: also called human MSLN-R2 protein; hMSLN-R2-his; not shown: His tag
- T1 sequence (Q13421 other isoform, or with tags, fused parts or gaps): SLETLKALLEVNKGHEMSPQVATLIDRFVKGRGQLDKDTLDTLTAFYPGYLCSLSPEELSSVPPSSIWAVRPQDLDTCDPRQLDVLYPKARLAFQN
- ASSAY EXPLANATION: ELISA, coated antigen; antibody 0.001 nM
READOUT TYPE: OD450 (OD450)
Answers are plain numbers, in OD450.

Some solved cases for reference:
S009-F6-76.1 (antibody, human IgG1, kappa, V domains shown, Human-murine chimeric antibody, human IgG1/kappa constant regions) VH: QVQLQQSGPELVKPGASVKISCKASGYTFTDYYINWVKQRPGQGLEWIGWIFPGRGSTFYYEKFKGKATLTVDKSSSTAYMLLSSLTSEDSAVYFCARRGDSAGYEDLDYWGQGTSVTVSS VL: NIVMTQSPKFMSMSVGERVTLSCKASENVVTYVSWYQQKPKQSPKLLIYGASKRYTGVPDRFTGSGSATDFTLTISSVQAEDLGDYHCGQSYSYPYTFGGGTKLEIKR
0.04
S009-F4-94.15 (antibody, human IgG1, kappa, V domains shown, Human-murine chimeric antibody, human IgG1/kappa constant regions) VH: QVQLHQPGAELVRPGSSVKLSCKASGYTFTSYWVHWVQQRPRQGLEWIGNIDPSDSEIHYNQKFKDKATLTVDKSSSTAYIHLSRLTSEDSAIYYCVRGGVPWFAYWGQGTLVTVSA VL: QIVLTQSPAIMSASPGEKVTLTCSASSSVSSTYLYWFQQKPGSSPKVWIYSTSNLASGVPARFSGSGSGTSYSLTISSMEAEDAASYFCHQWISYPYTFGGGTKLEIKR
0.05
Tab106 (YP218, hIgG1) (antibody, V domains shown, Control antibody: YP218 VH and VL recombined into human IgG1 CH and CL expression vectors; also called YP218 human IgG1 antibody) VH: QQQLEESGGGLVKPEGSLTLTCKASGFDLGFYFYACWVRQAPGKGLEWIACIYTAGSGSTYYASWAKGRFTISKASSTTVTLQMTSLAAADTATYFCARSTANTRSTYYLNLWGPGTLVTVSS VL: DVVMTQTPASVSEPVGGTVTIKCQASQRISSYLSWYQQKPGQRPKLLIFGASTLASGVPSRFKGSGSGTEYTLTISDLECADAATYYCQSYAYFDSNNWHAFGGGTEVVVRT
0.06

Kindly consider the entry below.
Input line: Need OD450 of S009-F4-127.10 (antibody, human IgG1, kappa, V domains shown, Human-murine chimeric antibody, human IgG1/kappa constant regions) VH: EVQLQQSGPVLVKPGASVKMSCKASGYTFTDYYMNWVKQSHGKSPEWIGVINPYNDVISYNQKFKGKATLTVDKSSSTAYMELNSLTSEDSAVYYCANYGSSYYAMDYWGQGTSVTVSS VL: DVVMTQTPLSLSVSLGDQASISCRSSQSLVHSNGNTYLQWSLQKPGQSPNLLIYKVSNRFSGVPDRFSGSGSGTDFTLKISRVEAEDLGVYFCSQTTHVPFTFGGGTKLEIRR , thanks.
Output line: 0.05
